study.system: SIRT1 (Homo sapiens)
Sequence (Q96EB6 1-747): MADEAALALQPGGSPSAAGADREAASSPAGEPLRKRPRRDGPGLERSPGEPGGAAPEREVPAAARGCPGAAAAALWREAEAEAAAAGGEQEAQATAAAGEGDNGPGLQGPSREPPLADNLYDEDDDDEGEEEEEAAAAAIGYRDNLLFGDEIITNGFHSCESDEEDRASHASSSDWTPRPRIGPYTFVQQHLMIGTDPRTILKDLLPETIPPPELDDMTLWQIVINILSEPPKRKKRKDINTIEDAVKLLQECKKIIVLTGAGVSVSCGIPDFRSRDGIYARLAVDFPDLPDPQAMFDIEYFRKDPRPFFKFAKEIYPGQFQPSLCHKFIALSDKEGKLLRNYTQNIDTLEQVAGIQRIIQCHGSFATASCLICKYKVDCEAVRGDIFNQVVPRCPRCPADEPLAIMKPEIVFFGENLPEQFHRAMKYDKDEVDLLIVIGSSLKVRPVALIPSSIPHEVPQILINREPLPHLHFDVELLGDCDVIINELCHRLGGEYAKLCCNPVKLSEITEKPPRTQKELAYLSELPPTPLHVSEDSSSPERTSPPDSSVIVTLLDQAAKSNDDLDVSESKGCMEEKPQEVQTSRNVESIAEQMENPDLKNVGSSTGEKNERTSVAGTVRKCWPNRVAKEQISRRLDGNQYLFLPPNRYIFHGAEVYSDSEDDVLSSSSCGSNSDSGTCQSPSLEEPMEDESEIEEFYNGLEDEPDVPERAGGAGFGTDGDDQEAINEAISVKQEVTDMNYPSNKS
method: Trp mass spectrometry assay of SIRT1 activation
Assay type: biochemical
study.conditions: concentration giving 150% activation of SIRT1; Trp peptide substrate
parameter: Tryp AVG EC1.5 (μM)

Answered examples (6):
1) NCCCCCC(=O)NCc1cccc(NC(=O)N2c3nc(-c4cccc(C(F)(F)F)c4)ccc3N3CC[C@H]2C3)c1 [Example 758] = A (A (EC1.5<1 μM))
2) Cc1nc(NC(=O)N2c3nc(-c4cccc(C(F)(F)F)c4)ccc3N3C[C@@H](O)[C@H]2C3)sc1C [Example 699] = B (B (EC1.5 1-25 μM))
3) NC(=O)c1ccc(NC(=O)N2c3nc(-c4cccc(C(F)(F)F)c4)ccc3N3CC[C@H]2C3)cc1 [Example 659] = A (A (EC1.5<1 μM))
4) Cc1cncc(NC(=O)N2c3nc(-c4cncc(C(F)(F)F)c4)ccc3N3C[C@@H](O)[C@H]2C3)c1 [Example 690] = B (B (EC1.5 1-25 μM))
5) O=C(Nc1cccc(-c2cnco2)n1)N1c2nc(-c3cccc(Cl)c3)ccc2N2C[C@@H](O)[C@H]1C2 [Example 693] = A (A (EC1.5<1 μM))
6) O=C(Nc1nncs1)N1c2nc(-c3cccc(C(F)(F)F)c3)ccc2N2CC[C@H]1C2 [Example 646] = A (A (EC1.5<1 μM))

Here is the next item to consider.
Please state recorded Tryp AVG EC1.5 (μM) (tested on SIRT1 (Homo sapiens)) of Cc1noc(C)c1-c1cccc(NC(=O)N2c3nc(-c4cccc(C(F)(F)F)c4)ccc3N3CC[C@H]2C3)n1 [Example 657]
A (A (EC1.5<1 μM))

###

study.system: SIRT1 (Homo sapiens, UniProt Q96EB6)
Sequence (Q96EB6 1-747): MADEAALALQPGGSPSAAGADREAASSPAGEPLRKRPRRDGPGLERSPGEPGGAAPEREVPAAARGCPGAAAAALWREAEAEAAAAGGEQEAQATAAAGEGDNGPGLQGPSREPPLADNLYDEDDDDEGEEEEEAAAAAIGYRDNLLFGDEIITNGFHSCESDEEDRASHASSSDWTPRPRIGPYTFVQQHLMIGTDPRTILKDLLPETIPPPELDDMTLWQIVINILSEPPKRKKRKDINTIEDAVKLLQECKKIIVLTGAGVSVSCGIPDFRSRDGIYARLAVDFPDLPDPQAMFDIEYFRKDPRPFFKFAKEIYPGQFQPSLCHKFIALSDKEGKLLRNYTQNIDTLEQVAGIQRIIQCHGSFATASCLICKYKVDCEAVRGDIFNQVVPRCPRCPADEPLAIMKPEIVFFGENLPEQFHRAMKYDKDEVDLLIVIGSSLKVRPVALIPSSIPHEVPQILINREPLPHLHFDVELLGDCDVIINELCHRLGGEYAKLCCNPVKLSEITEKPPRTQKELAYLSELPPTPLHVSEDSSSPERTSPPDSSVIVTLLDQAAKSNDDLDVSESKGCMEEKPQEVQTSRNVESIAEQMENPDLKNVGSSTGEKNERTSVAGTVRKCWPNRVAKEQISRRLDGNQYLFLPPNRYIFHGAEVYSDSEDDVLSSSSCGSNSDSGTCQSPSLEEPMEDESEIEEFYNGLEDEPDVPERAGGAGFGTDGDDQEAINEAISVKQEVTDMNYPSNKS
method: Trp mass spectrometry assay of SIRT1 activation
Format: biochemical
study.conditions: Trp mass spectrometry assay; EC1.5 = concentration of test compound that results in 150% activation of SIRT1
parameter: Tryp AVG EC1.5 (μM)

1) O=C(Nc1cccc(-c2cnco2)n1)N1c2nc(-c3cccc(C(F)(F)F)c3)ccc2N2CCC1CC2 = A (A (EC1.5<1 μM))
2) O=C(Nc1ccccn1)N1c2nc(-c3cncc(F)c3)ccc2N2CCC[C@H]1C2 = A (A (EC1.5<1 μM))
3) O=C(Nc1cc(-c2cnco2)ccn1)N1c2nc(-c3cccc(C(F)(F)F)c3)ccc2N2CCC[C@H]1C2 = A (A (EC1.5<1 μM))

###

study.system: SIRT1 (Homo sapiens, UniProt Q96EB6)
method: Trp mass spectrometry assay of SIRT1 activation
Assay type: biochemical
study.conditions: Trp mass spectrometry assay; EC1.5 = concentration of test compound that results in 150% activation of SIRT1
parameter: Tryp AVG EC1.5 (μM)

# example entries with known answers
1. Cc1nc(NC(=O)N2c3nc(-c4ccccc4C#N)ccc3N3CCC[C@H]2C3)sc1C = B (B (EC1.5 1-25 μM))
2. COc1cc(NC(=O)N2c3nc(-c4ccccc4C#N)ccc3N3CCC[C@H]2C3)ncn1 = C (C (EC1.5>25 μM))
3. O=C(Nc1cccc(-c2cnco2)n1)N1c2nc(-c3cccc(C(F)(F)F)c3)ccc2N2CC[C@H]1C2 = A (A (EC1.5<1 μM))
4. Cc1cc(-c2ccc3c(n2)N(C(=O)Nc2cccc(-c4cnco4)c2)[C@H]2CCN3C2)ccn1 = A (A (EC1.5<1 μM))
5. O=C(Nc1cc(F)ccn1)N1c2nc(-c3cccc(C(F)(F)F)c3)ccc2N2CCC1CC2 = A (A (EC1.5<1 μM))
6. O=C(Nc1cccnc1)N1c2nc(-c3cncc(Cl)c3)ccc2N2CCC1CC2 = B (B (EC1.5 1-25 μM))

Now for another entry.
Param item = Cc1nc(NC(=O)N2c3nc(-c4cccc(Cl)c4)ccc3N3CCC2CC3)sc1C ; retrieve measured Tryp AVG EC1.5 (μM).
B (B (EC1.5 1-25 μM))

###

study.system: SIRT1 (Homo sapiens)
method: Trp mass spectrometry assay of SIRT1 activation
Assay type: biochemical
study.conditions: Trp mass spectrometry assay; EC1.5 = concentration of test compound that results in 150% activation of SIRT1
parameter: Tryp AVG EC1.5 (μM)

Some entries whose results are on file:
1. CC(C)(C)OC(=O)N1CCc2ccc(NC(=O)N3c4nc(-c5cccc(C(F)(F)F)c5)ccc4N4CC[C@H]3C4)cc2C1 = B (B (EC1.5 1-25 μM))
2. O=C(Nc1ccc(F)cn1)N1c2nc(-c3cncc(F)c3)ccc2N2CCC[C@H]1C2 = A (A (EC1.5<1 μM))
3. O=C(NCCCN1CCOCC1)N1c2nc(-c3cccc(C(F)(F)F)c3)ccc2N2CC[C@H]1C2 = B (B (EC1.5 1-25 μM))
4. O=C(Nc1cccnc1)N1c2nc(-c3cnn(-c4ccccc4)c3)ccc2N2CC[C@H]1C2 = B (B (EC1.5 1-25 μM))

Please look at the following compound next.
Tryp AVG EC1.5 (μM) of N#Cc1cncc(-c2ccc3c(n2)N(C(=O)Nc2cnccn2)[C@H]2CCN3C2)c1 on SIRT1 (Homo sapiens)?
A (A (EC1.5<1 μM))

###

study.system: SIRT1 (Homo sapiens)
method: Trp mass spectrometry assay of SIRT1 activation
Type: biochemical
study.conditions: concentration giving 150% activation of SIRT1; Trp peptide substrate
parameter: Tryp AVG EC1.5 (μM)

Recorded Tryp AVG EC1.5 (μM), per entry:
1. Cc1cc(-c2ccc3c(n2)N(C(=O)Nc2cc(-c4cnco4)ccn2)[C@H]2CCN3C2)ccn1 = A (A (EC1.5<1 μM))
2. O=C(Nc1cccnn1)N1c2nc(-c3cccc(C(F)(F)F)c3)ccc2N2C[C@@H](O)[C@H]1C2 = B (B (EC1.5 1-25 μM))
3. O=C(Nc1ccccn1)N1c2nc(-c3cccc(C(F)(F)F)c3)ccc2N2CCC[C@H]1C2 = A (A (EC1.5<1 μM))
4. CS(=O)(=O)c1cccc(-c2ccc3c(n2)N(C(=O)Nc2cccc(-c4cnco4)n2)[C@H]2CCN3C2)c1 = B (B (EC1.5 1-25 μM))
5. C#CCOc1cccc(NC(=O)N2c3nc(-c4ccc(C5(C(F)(F)F)N=N5)cc4)ccc3N3CC[C@H]2C3)c1 = B (B (EC1.5 1-25 μM))
6. O=C(Nc1ccc(Br)c(-c2cnco2)c1)N1c2nc(-c3cccc(C(F)(F)F)c3)ccc2N2CC[C@H]1C2 = A (A (EC1.5<1 μM))

Fill blank: measured Tryp AVG EC1.5 (μM) of the compound O=C(Nc1cccc(CN2CCOCC2)c1)N1c2nc(-c3cccc(C(F)(F)F)c3)ccc2N2CC[C@H]1C2 is ____.
A (A (EC1.5<1 μM))

For COc1cc(NC(=O)N2c3nc(-c4cncc(C(F)(F)F)c4)ccc3N3C[C@@H](O)[C@H]2C3)ncn1 then?
B (B (EC1.5 1-25 μM))

CN(C)c1ccnc(NC(=O)N2c3nc(-c4cccc(C(F)(F)F)c4)ccc3N3CC[C@H]2C3)n1 , same question.
A (A (EC1.5<1 μM))

Repeat for the following compound: Cc1cncc(NC(=O)N2c3nc(-c4cccc(C(F)(F)F)c4)ccc3N3C[C@@H](O)[C@H]2C3)c1
A (A (EC1.5<1 μM))

Likewise for O=C(Nc1cccc(-c2cnco2)n1)N1c2nc(-c3cccc(C(F)(F)F)c3)ccc2N2C[C@@H](O)[C@H]1C2 ?
A (A (EC1.5<1 μM))

Now consider CCCn1cc(-c2cccc(NC(=O)N3c4nc(-c5cccc(C(F)(F)F)c5)ccc4N4CC[C@H]3C4)n2)cn1 and answer again.
A (A (EC1.5<1 μM))

Next: O=C(NCCCCn1ccnc1)N1c2nc(-c3cccc(C(F)(F)F)c3)ccc2N2CC[C@H]1C2
B (B (EC1.5 1-25 μM))
